Molecular target: T1, cyno EpCAM (recombinant, ELISA antigen) (cynomolgus monkey)
T1 construct: extracellular domain; also called cynomolgus EpCAM extracellular domain
T1 sequence (Q1WER1 24-265): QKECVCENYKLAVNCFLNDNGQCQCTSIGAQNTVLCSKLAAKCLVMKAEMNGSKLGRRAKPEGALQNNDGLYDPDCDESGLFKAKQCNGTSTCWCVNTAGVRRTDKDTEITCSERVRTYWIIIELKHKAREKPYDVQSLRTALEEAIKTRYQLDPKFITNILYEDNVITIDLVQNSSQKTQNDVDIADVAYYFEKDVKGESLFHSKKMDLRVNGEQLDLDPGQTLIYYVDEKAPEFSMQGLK
Experiment: ELISA with pH titration, cyno EpCAM
quantity measured: pH inflection point (pH)

binder	quantity measured	value unit	recorded value
BA-105.4-02-01 8318-vcMMAE (antibody, V domains shown, antibody conjugated to vcMMAE; chain and residues of attachment not stated) VH: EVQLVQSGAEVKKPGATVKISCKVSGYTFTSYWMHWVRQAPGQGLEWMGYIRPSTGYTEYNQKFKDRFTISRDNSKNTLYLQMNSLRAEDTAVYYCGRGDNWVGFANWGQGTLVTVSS VL: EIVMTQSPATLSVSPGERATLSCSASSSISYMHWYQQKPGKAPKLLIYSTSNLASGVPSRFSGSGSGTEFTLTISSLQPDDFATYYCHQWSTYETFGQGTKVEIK	pH inflection point	pH	6.16
BA-105-01-01 7376-vcMMAE (antibody, V domains shown, antibody conjugated to vcMMAE; chain and residues of attachment not stated) VH: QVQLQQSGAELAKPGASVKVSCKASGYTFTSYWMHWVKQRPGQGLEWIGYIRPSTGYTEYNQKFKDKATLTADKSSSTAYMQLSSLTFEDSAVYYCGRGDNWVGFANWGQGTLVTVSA VL: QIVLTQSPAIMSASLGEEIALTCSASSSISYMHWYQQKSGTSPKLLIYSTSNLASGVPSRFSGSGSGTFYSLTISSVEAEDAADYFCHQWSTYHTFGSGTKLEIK	pH inflection point	pH	5.07
BA-105.4-01-05 8317-vcMMAE (antibody, V domains shown, antibody conjugated to vcMMAE; chain and residues of attachment not stated) VH: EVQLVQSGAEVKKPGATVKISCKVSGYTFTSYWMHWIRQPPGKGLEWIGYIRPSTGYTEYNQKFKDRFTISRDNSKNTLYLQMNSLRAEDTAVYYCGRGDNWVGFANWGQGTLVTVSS VL: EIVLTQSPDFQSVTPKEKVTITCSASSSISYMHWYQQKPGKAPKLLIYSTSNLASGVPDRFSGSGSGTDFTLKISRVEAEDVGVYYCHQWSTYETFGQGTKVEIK	pH inflection point	pH	6.28
BA-105.4-01-02 8316-vcMMAE (antibody, V domains shown, antibody conjugated to vcMMAE; chain and residues of attachment not stated) VH: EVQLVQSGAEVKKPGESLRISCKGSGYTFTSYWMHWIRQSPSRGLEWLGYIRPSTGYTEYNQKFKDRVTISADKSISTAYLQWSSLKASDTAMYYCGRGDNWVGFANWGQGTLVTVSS VL: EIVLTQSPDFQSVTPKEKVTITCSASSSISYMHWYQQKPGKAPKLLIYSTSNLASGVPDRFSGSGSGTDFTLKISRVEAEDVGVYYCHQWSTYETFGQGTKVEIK	pH inflection point	pH	6.3
